These measurements were taken from ChEMBL document CHEMBL3244059.

experiment_description: Acute toxicity in iv dosed ddN mouse assessed as mortality after 24 hrs
Type: organism-based
setup_conditions: in vivo
readout: LD50 at 24 h (mg/kg)
Enter your answer as a number in mg/kg; do not include the unit.

Inquiry: I have this compound here, CCCCCc1cc(O)c2c(c1)OC(C)(C)[C@@H]1CC=C(C)C[C@@H]21 [DELTA-8-TETRAHYDROCANNABINOL] , and I need its recorded LD50 at 24 h.
Reply text: 27.5

---

experiment_description: Drug metabolism in mouse liver homogenates assessed as compound hydrolysis at pH 9.6 after 60 mins by spectrophotometric analysis in presence of alkaline phosphatase
Assay type: ADME, tissue-based
setup_conditions: read-out: Drug metabolism
readout: metabolised at 1 h (%)
Express your answer in %, writing the number without its unit.

- molecule: "CCCCCc1cc2c(c(OP(=O)([O-])[O-])c1)[C@@H]1CC(C)=CC[C@H]1C(C)(C)O2.[Na+].[Na+]"
  metabolised at 1 h [%]: 24.5

Consider the additional molecule presented here.
Inquiry: Could you share which metabolised at 1 h value was measured for O=[N+]([O-])c1ccc(OP(=O)(O)O)cc1 [p-NITROPHENYLPHOSPHATE] ?
Reply text: 73.6

---

Entries and their measured metabolised at 0.25 h follow.
experiment_description: Drug metabolism in mouse liver homogenates assessed as compound hydrolysis at pH 9.6 after 15 mins by spectrophotometric analysis in presence of alkaline phosphatase
Format: ADME, tissue-based
setup_conditions: read-out: Drug metabolism
Note to self: number, then unit, no commentary.

- compound: "CCCCCc1cc2c(c(OP(=O)([O-])[O-])c1)[C@@H]1CC(C)=CC[C@H]1C(C)(C)O2.[Na+].[Na+]"
  metabolised at 0.25 h: "7.8%"

Moving on to another compound below.
Inquiry: Report metabolised at 0.25 h for O=[N+]([O-])c1ccc(OP(=O)(O)O)cc1 [p-NITROPHENYLPHOSPHATE] please.
Reply text: 21.5%
